target: Human Cathepsin V (Homo sapiens, UniProt O60911); assay: Cathepsin V assay; assay type: biochemical; details: tested at one concentration, 100 nM
Sequence (O60911 114-334): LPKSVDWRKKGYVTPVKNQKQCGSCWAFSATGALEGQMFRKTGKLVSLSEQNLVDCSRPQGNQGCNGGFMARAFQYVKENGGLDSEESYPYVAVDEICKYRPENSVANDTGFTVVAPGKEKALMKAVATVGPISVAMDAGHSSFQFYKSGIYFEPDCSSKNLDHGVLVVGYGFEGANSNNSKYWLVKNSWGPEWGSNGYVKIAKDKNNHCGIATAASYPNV
Known IC50 of a selection of molecules

| test_smiles | IC50 |
| --- | --- |
| CC[C@H](NC(=O)[C@H](CC(F)(F)CC1CC1)N[C@@H](c1ccc(F)cc1)C(F)(F)F)C(=O)C(=O)NC1CC1 | < 100 nM |

Now consider the entry below.
Query for Human Cathepsin V (Homo sapiens, UniProt O60911): what IC50 does the record show for CC[C@H](NC(=O)[C@H](CC(F)(F)CC1CC1)NCC(F)(F)Oc1ccc(F)cc1)C(=O)C(=O)NC1CC1 ?
< 100 nM

====

target: Human Cathepsin V (Homo sapiens, UniProt O60911); assay: Cathepsin V assay; type: biochemical
readout_type: IC50

Query for Human Cathepsin V (Homo sapiens, UniProt O60911): what IC50 does the record show for CC[C@H](NC(=O)[C@H](CS(=O)(=O)Cc1cccnc1)N[C@@H](c1ccc(F)cc1)C(F)(F)F)C(=O)C(=O)NC1CC1 ?
< 250 pM

====

target: cathepsin L (Homo sapiens, UniProt P07711); assay: Cathepsin L assay; type: biochemical; conditions: tested at one concentration, 100 nM
Sequence (P07711 114-333): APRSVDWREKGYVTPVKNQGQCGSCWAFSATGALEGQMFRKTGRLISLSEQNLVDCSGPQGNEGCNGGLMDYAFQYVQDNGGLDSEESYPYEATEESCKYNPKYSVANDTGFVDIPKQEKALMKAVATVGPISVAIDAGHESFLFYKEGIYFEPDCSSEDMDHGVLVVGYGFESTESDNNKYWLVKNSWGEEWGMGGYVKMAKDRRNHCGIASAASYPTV
pIC50: −log10 of the molar value.
Known pIC50 of a selection of compounds

| test_smiles | reported_measurement |
| --- | --- |
| CC[C@H](NC(=O)[C@H](CC(F)(F)CC1CC1)N[C@@H](c1ccc(F)cc1)C(F)(F)F)C(=O)C(=O)NC1CC1 | > 7.00 |

Now consider the entry below.
Give the measured pIC50 of CC[C@H](NC(=O)[C@H](CC(F)(F)CC1CC1)NCC(F)(F)Oc1ccc(F)cc1)C(=O)C(=O)NC1CC1 .
> 7.00
